# Tested on: Hs-578T
# Measurement Protocol: NCI tumour cell line growth inhibition, 48 h
The source made the active and inactive calls. Rule as the data show it: active = GI50 up to about 1.1 µM and inactive = higher.
Property Name: GI50

Lab entry: Hs-578T assay, molecule CCOC(=O)c1nc2ccc(C(F)(F)F)cc2[nH]c1=O , GI50 = 82 µM (inactive)

The molecule CC12CC3OC(=O)C1COC14OC5(C2C1=O)C(O)(CCC1C4CC(O)C2(O)CC=CC(=O)C12C)C(=O)OC35C (centres undefined) , when measured on Hs-578T, yielded GI50 of > 100 µM (inactive)

// molecule CCOC(=O)c1nc2cc(C(F)(F)F)ccc2nc1Nc1ccc(C(=O)NC(C(=O)OCC)C(=O)OCC)cc1 , assay Hs-578T, GI50 value: 12.4 µM (inactive)

The measured GI50 that C=C1CC2[C@H](C)C(=O)CCC2(C)C2=C1C1CCC(C(C)CCC(=C)C(C)C(=O)O)C1(C)CC2=O (some centres undefined) showed for Hs-578T is > 100 µM (inactive)

Summary line: CC(C)=Cc1cc(C)c2c(O)cc(C)c3c2c1C(C)=C(O)C3=O , Hs-578T, reported GI50 = 27 µM (inactive)

Tested system Hs-578T; GI50 recorded for COC(=O)CCC(=O)NC1=C(NCc2ccccc2)C(=O)c2ccccc2C1=O was > 100 µM (inactive)

Summary line: O=[N+]([O-])C(/C(Cl)=C(/Cl)N1CCCCC1)=C1\NCCO1 , Hs-578T, reported GI50 = > 100 µM (inactive)

Entry COc1ccc(/C=N/Nc2nc(=S)[nH]c3[nH]ncc23)cc1 under Hs-578T had GI50 of > 100 µM (inactive)

// assay Hs-578T, entry Oc1nc2ccccc2c2oc3ccccc3c12 , GI50 value = 37.9 µM (inactive)

---

# Tested on: M19-MEL
# Measurement Protocol: NCI tumour cell line growth inhibition, 48 h
The source made the active and inactive calls. Rule as the data show it: active = GI50 up to about 1.1 µM and inactive = higher.
Kindly state GI50 for each of the entries shown.

In plain terms, CC1=C(C(=O)Nc2cc(=O)n(C)c(=O)n2C)C(c2ccco2)C(C(=O)Nc2cc(=O)n(C)c(=O)n2C)=C(C)N1 has a documented GI50 of > 100 µM (inactive)

GET /value?item= CC1CCSC(N(C(=O)N(C)c2ccccc2)c2ccccc2)=N1 (stereo unspecified) &field=GI50 returns > 100 µM (inactive)

Noted for Nc1ncnc2c1ncn2C1CC(OCc2ccccc2[N+](=O)[O-])C(CO)O1 (stereo unspecified) : its GI50 reads 16.1 µM (inactive)

Kindly note the recorded GI50 for COc1cc2cc[n+]3c4cc(OC)c(OC)cc4c(C)cc3c2cc1OC , which is > 100 µM (inactive)

Notebook: CC1(C)OC2C(O1)[C@H]1OC(C(Cl)(Cl)Cl)=N[C@H]1C(I)[C@H]2N1C(=O)c2ccccc2C1=O (stereo partly specified) , GI50 read as 69.8 µM (inactive)

Quick note, GI50 for O=C1[C@@H]2C(c3ccncc3)=NO[C@@H]2C(=O)N1c1ccc(Cc2ccc(N3C(=O)[C@H]4C(c5ccncc5)=NO[C@H]4C3=O)cc2)cc1 landed at > 100 µM (inactive)

Field GI50 (entry CN(C)C(=S)/N=c1\ss/c(=N\C(=S)N(C)C)n1-c1ccc(Cl)c(Cl)c1 ) reads > 100 µM (inactive)

GI50 reading for COc1cc(C2c3cc4c(cc3[C@@H](Nc3ccc(Oc5ccccc5)cc3)C3COC(=O)[C@H]23)OCO4)cc(OC)c1O (stereo partly specified) : 4.36 µM (inactive)

// GI50 value for O=C(O)c1oc2cccc3c2c1CCC3 : > 100 µM (inactive)

The recorded GI50 for Cc1cccc2c1N(C(=O)/C=C\C(=O)O)C(c1c(C)[nH]c3ccccc13)C2 (stereo unspecified) is 22.7 µM (inactive)

Reported GI50 ( S=c1sc2c(s1)SC(c1ccccc1)CS2 (stereo unspecified) ) = > 100 µM (inactive)

Looking up COc1ccc(C2CC(=O)c3c(O)cc(O)cc3O2)cc1O (stereo unspecified) , I found its GI50 recorded as > 100 µM (inactive)

GI50 reported for this compound COc1cc(/N=N\c2cccc(S(=O)(=O)O)c2)ccc1/N=N\c1ccc(/C=C/c2ccc(-n3on3-c3ccc(/C=C/c4ccc(/N=N/c5ccc(/N=N\c6cccc(S(=O)(=O)O)c6)cc5OC)cc4S(=O)(=O)O)c(S(=O)(=O)O)c3)cc2S(=O)(=O)O)c(S(=O)(=O)O)c1 : > 100 µM (inactive)

Lab book: GI50 of COc1cc(Nc2cnc3ccc(C(F)(F)F)cc3n2)cc(OC)c1OC noted as 13.6 µM (inactive)

// GI50 value for COc1ccc([C@H]2c3cc4c(cc3OC(O)(CO)[C@H]2C(=O)O)OCO4)c(OC)c1.COc1ccc([C@H]2c3cc4c(cc3OC3(O)COC(=O)[C@@H]23)OCO4)c(OC)c1 (stereo partly specified) : 61.7 µM (inactive)

# GI50 (compound: Nc1ccn([C@@H]2C[C@H](CO)[C@@H](O)[C@H]2O)c(=O)n1 ) is > 57.7 µM (inactive)

---

# Test system: SF-268
# Measurement Protocol: NCI tumour cell line growth inhibition, 48 h
Activity calls are given as the source filed them. Cut-off read from the data, not from the text of the source: active = GI50 up to about 1.1 µM and inactive = higher.
Assign GI50 to each entry below.

GI50 recorded for this molecule, O=C(O)CCC(=O)c1ccc2ccc3cccc4ccc1c2c34 , is 61.7 µM (inactive)

The reported value for O=C1[C@@H]2C(c3ccncc3)=NO[C@@H]2C(=O)N1c1ccc(Cc2ccc(N3C(=O)[C@H]4C(c5ccncc5)=NO[C@H]4C3=O)cc2)cc1 in terms of GI50 is > 100 µM (inactive)

The reported value for CCOC(=O)C(O)(NC(=O)c1ccccc1F)C(F)(F)F (centres undefined) in terms of GI50 is > 100 µM (inactive)

Measured GI50, Cc1cc(N(CCC#N)CCC#N)ccc1C(/N=N/c1ccccc1)=N\NC(=O)c1ccccc1 : 42.8 µM (inactive)

Kindly note the recorded GI50 for CN(C)CCNc1nc2c(c(=O)n(C)c(=O)n2C)n1C , which is > 100 µM (inactive)

Query CNC(=O)OC(C)CN1c2ccccc2Sc2ccc(Cl)cc21 (centres undefined) yields GI50 of > 10 µM (inactive)

Entry COc1ccc(/C=N/Nc2nc(=S)[nH]c3[nH]ncc23)cc1 ; GI50 = 93.8 µM (inactive)

Form field GI50, entry COc1ccc(OC)c2[s+]snc12 : 52.6 µM (inactive)

Reported GI50 ( CCCCOC1CC2(c3ccc(OC)cc3)C(=O)c3ccccc3N2O1 (centres undefined) ) = 50.5 µM (inactive)

GI50 for CN(C)C(=S)/N=c1\ss/c(=N\C(=S)N(C)C)n1-c1ccc(Cl)c(Cl)c1 is > 100 µM (inactive)

GET /value?item= COC(=O)c1cc(C#N)[nH]c1-c1cccs1 &field=GI50 returns > 100 µM (inactive)

Value of measured GI50 for the entry Brc1ccc2c(-c3csc(-c4c[nH]c5ccccc45)n3)c[nH]c2c1 : 18.3 µM (inactive)

Form: molecule = N=C1C(=N)c2ccccc2-c2ccccc21 ; GI50 = 2.1 µM (inactive)

Consider COc1ccc(OC)c(-c2cc(C(=O)O)c3cc4ccccc4cc3n2)c1 . Its measured GI50 is > 100 µM (inactive)

---

# System: MDA-MB-231
# Measurement Protocol: NCI tumour cell line growth inhibition, 48 h
Activity calls are given as the source filed them. Rule as the data show it: active = GI50 up to about 1.1 µM and inactive = higher.
Property Name: GI50

The recorded GI50 for CC(=O)c1c2c(cc3c1CC1(C3)Cc3ccc4c(c3C1=O)CCC4)CCC2 (stereo not drawn) is 24.7 µM (inactive)

compound O=C1C=CC(=O)C(N(CCO)CCO)=C1.O=C1C=CC2(O)OCCN(CCO)C2=C1 , GI50 observed: > 100 µM (inactive)

So for Cc1ccc(S(=O)(=O)Nc2nc3ccccc3c(=O)n2C2CCCCC2)cc1 , the logged GI50 turned out to be 78.3 µM (inactive)

GI50 in this record for C/C=C1\CC(C(=O)OCC)CCCCCCCCCCC1=O (stereo not drawn) : 58.6 µM (inactive)

Briefly, GI50 measured for CCCCSC1=N/C(=C\c2ccco2)C(Cl)=N1 : > 100 µM (inactive)

The measured GI50 associated with Oc1ccccc1/C=N/c1ccc(-c2nc3ccccc3[nH]2)cc1 reads 40.5 µM (inactive)

Entry O=C(O)CCC(=O)c1ccc2ccc3cccc4ccc1c2c34 — recorded GI50 = 64 µM (inactive)

response.value for CC(C)=Cc1cc(C)c2c(O)cc(C)c3c2c1C(C)=C(O)C3=O (field: GI50) = 24.9 µM (inactive)

---

# System: HCC 2998
# Measurement Protocol: NCI tumour cell line growth inhibition, 48 h
The source made the active and inactive calls. No stated cut-off is given here; in the data, active = GI50 up to about 1.1 µM and inactive = higher.
Please state which outcome applies, choosing from active, inactive

Could you kindly confirm the outcome this assay logged for Cc1ccc(/N=N/c2c(C)c(C#N)c(=S)n(C3OC(CO)C(O)C(O)C3O)c2-c2ccccc2)cc1 (stereo not drawn) ?
inactive

Please share the test call associated with S=C(N/N=C(/c1ccccc1)c1ccccn1)N(Cc1ccccn1)Cc1ccccn1 .
inactive

Would you mind telling me which call this test gave O=C1Nc2ccccc2C(=O)O/C(Cc2ccccc2)=N\c2ccccc21 ?
inactive

Check the results log: what was the call for Brc1ccc2c(-c3csc(-c4c[nH]c5ccccc45)n3)c[nH]c2c1 ?
inactive

Entry CC12CC3OC(=O)C1COC14OC5(C2C1=O)C(O)(CCC1C4CC(O)C2(O)CC=CC(=O)C12C)C(=O)OC35C (stereo not drawn) : call = ?
inactive

Kindly provide the recorded test outcome for the following compound: COc1c(C)c(OC)c2c(c1O)[C@@H]1[C@@H]3Cc4c(OC)c(C)c(OC)c(O)c4[C@H](CNC(=O)c4cnc5ccccc5n4)N3[C@@H](C#N)[C@H](C2)N1C
active

What outcome does the record of this test show for N/C(=N\O)N/N=C\c1ccc(O)c(O)c1O ?
inactive

Kindly provide the recorded test outcome for the following compound: Cc1cccc2c1N(C(=O)/C=C\C(=O)O)C(c1c(C)[nH]c3ccccc13)C2 (stereo not drawn)
inactive
